- procedureText: Plasma Piroxicam after gavage, combined administration with calcium threonate (Example 12)
- Format: in vivo, Wistar derived albino rats
- appliedConditions: rat, plasma, po, 0.6 mg/kg, 8 hours after dosing; individual rat; read-out: Plasma Piroxicam Concentration
experimentalEndpoint: concentration at 8 h (ng/mL)
Write it as a number; the unit ng/mL goes unstated.

Asked: Report concentration at 8 h for CN1C(C(=O)Nc2ccccn2)=C(O)c2ccccc2S1(=O)=O [Prioxicam] please.
Given back: 1700
